- test_target: ERCC1/XPF (XPF endonuclease) (Homo sapiens, UniProt Q92889)
- Construct: with ERCC1
- Sequence (Q92889 whole entry): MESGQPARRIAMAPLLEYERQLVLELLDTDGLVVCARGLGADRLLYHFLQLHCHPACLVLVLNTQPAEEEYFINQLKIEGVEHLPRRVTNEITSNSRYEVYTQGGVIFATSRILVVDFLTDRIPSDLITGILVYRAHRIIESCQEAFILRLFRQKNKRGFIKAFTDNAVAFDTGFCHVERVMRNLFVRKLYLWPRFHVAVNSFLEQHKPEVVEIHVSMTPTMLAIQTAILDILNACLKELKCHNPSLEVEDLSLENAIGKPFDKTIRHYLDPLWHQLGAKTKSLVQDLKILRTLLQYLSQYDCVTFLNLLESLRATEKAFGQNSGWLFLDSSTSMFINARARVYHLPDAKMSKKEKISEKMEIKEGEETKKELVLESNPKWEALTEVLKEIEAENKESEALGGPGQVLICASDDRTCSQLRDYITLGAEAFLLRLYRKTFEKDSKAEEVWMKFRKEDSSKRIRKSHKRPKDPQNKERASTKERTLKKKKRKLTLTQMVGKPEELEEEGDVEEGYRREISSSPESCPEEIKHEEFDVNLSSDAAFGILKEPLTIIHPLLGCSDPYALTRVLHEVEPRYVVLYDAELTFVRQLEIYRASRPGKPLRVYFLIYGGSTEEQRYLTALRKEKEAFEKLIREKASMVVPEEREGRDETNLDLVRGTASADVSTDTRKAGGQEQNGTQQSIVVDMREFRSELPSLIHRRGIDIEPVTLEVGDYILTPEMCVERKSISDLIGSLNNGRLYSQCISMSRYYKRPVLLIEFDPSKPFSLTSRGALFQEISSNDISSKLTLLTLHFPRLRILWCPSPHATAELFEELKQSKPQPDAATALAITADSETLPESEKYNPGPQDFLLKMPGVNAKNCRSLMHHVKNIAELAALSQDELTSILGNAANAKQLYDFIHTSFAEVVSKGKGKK
- Sequence (P07992 whole entry, further chain): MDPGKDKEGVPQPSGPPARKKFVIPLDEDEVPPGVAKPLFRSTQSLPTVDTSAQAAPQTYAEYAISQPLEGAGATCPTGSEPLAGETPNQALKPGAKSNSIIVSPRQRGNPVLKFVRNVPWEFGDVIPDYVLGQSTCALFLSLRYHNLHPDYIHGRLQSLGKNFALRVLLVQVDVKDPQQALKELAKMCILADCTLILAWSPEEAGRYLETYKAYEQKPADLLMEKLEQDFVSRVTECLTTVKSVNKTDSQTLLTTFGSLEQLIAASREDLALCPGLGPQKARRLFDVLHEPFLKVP
- protocol_text: fluorescence-based DNA incision assay with purified ERCC1/XPF
pIC50: −log10 of the molar value.

| molecular_string | pIC50 |
| --- | --- |
| O=c1c(O)c(-c2cc(O)c(O)c(O)c2)oc2cc(O)cc(O)c12 | ~6.82 |
